Tested on: Plasmodium falciparum
Assay: Antimalarial activity against Plasmodium falciparum W2mef ring form by hoechst 33342-thiazole orange stain based flow cytometry assay
Format: functional, organism-based
value.type: IC50 (µM)

Below, 2 compounds whose answers are already recorded.
compound: CNC(=O)c1cc(Oc2ccc(NC(=O)Nc3ccc(Cl)c(C(F)(F)F)c3)cc2)ccn1
unit.abbrev: µM
IC50: 0.328
--
compound: Cc1cc(/C=C/C#N)cc(C)c1Nc1ccnc(Nc2ccc(C#N)cc2)n1
unit.abbrev: µM
IC50: 1.2

P: Cn1cnc(CSCc2ccc(I)cc2)c1
Q: Cc1[nH]c(/C=C2\C(=O)Nc3ccc(S(=O)(=O)N(C)c4cccc(Cl)c4)cc32)c(C)c1C(=O)N1CCN(C)CC1
R: Cc1cc(C#N)cc(C)c1Oc1nc(Nc2ccc(C#N)cc2)nc(N)c1Br
-- ask // ranking: key=IC50, reverse=True Use the labels to give the ranking in the order requested.
-- reply P, R, Q
(P: 1.07 µM, R: 0.409 µM, Q: 0.228 µM)

---

System: Plasmodium falciparum
Test: microbe, parasite or virus in culture
Conditions: W2mef
Description: Antimalarial activity against Plasmodium falciparum W2mef by hypoxanthine uptake assay
value.type: IC50 (µM)
Numbers only here, please. The scale is µM.

compound: OC(c1cc(C(F)(F)F)nc2c(C(F)(F)F)cccc12)C1CCCCN1 (configuration not stated)
value.type: IC50
quantitative.readout: 0.142

Would you kindly look at the next entry?
-- ask Entry under review: C[C@@H]1CC[C@H]2[C@@H](C)C(=O)O[C@@H]3O[C@@]4(C)CC[C@@H]1[C@]32OO4 . Reported IC50?
-- reply 0.012
